assay: qHTS for Inhibitors of Plasmodium falciparum (CP250) proliferation (AID 504320); details: P. falciparum CP250 in erythrocytes, SYBR Green DNA, 72 h; series mostly up to 6.7 µM
Inconclusive results are not listed. The source made the active and inactive calls. The call rests on the fitted dose curve; in most records, active means well fitted inhibition curve with a large enough effect; inconclusive means small, poorly fitted or top-dose-only effect, or effect the other way; inactive means flat fitted curve, though single readings scatter.
Answer with one of the outcomes given here: yes = active, no = inactive

Ask | Which outcome was assigned to COc1cc2c(cc1OC)[C@@H]1O[C@](CCCCN3C(=O)c4ccccc4C3=O)(C2)OC2=C1C(=O)CC(C)(C)C2 in this test?
Reply | yes

Ask | Which outcome was assigned to COCC=CC1=CC2=CC(=O)C(C)(OC(=O)c3cnc4ccccc4n3)C(=O)C2=CN1CCCCO (stereo unspecified) in this test?
Reply | no

Ask | Which outcome was assigned to C[C@@H]1C(c2ccccc2)=CC(=O)c2nc3ccccc3cc2[C@@H]1C(=O)N1CCCC1 in this test?
Reply | no

Ask | Which outcome was assigned to COC(=O)C(C(C)=O)[C@@H](NC(=O)NCc1ccccc1)c1ccccc1 (stereo partly specified) in this test?
Reply | no

Ask | Which outcome was assigned to C#CCCCON=C1C[C@@H](O)[C@@H](O)[C@@H]2[C@H]3C(=O)N(C(C)(C)C)C(=O)[C@@H]3CC[C@H]12 in this test?
Reply | no

---

experiment: qHTS for Inhibitors of Plasmodium falciparum (7G8) proliferation (AID 504316); further: nearly all actives have a fitted effect of over 65% in size; details: P. falciparum 7G8 in erythrocytes, SYBR Green DNA, 72 h; series mostly up to 6.7 µM
Records with an inconclusive call do not appear. Activity calls are given as the source filed them. Calls come from the whole dose curve; as a rule, active = well fitted inhibition curve with a large enough effect; inconclusive = small, poorly fitted or top-dose-only effect; inactive = flat fitted curve, though single readings scatter.
Answer with one of the outcomes given here: active, inactive

[[record]]
compound = "C[C@H]1CC[C@H]2C(=O)N(Cc3ccc(Cl)cc3)C[C@@H](O)CN2[C@H]1c1ccc(Br)cc1"
classassignment = "active"

[[record]]
compound = "O=C1CCCC=C1[C@@H](O)CCOC(c1ccccc1)(c1ccccc1)c1ccccc1"
classassignment = "active"

[[record]]
compound = "CCC(=O)OC1(C)C(=O)C=C2C=C(CCCC(=O)OC)OC=C2C1=O (centres undefined)"
classassignment = "inactive"

[[record]]
compound = "COC(=O)C1=C(C(=O)OC)[C@@H]2Nc3ccccc3[C@@]23C[C@@H](C(=O)OC)N(C(=O)NC(C)(C)C)C3=N1"
classassignment = "inactive"

[[record]]
compound = "CC(C)C(=O)NC(=O)[C@@H]1CCCN1C(=O)C=Cc1ccccc1"
classassignment = "inactive"


Ask | Which outcome was assigned to CC(=O)OC[C@H]1O[C@H](C#CC2=CCCCC2)C=C[C@H]1OC(C)=O in this test?
Reply | inactive

Ask | Which outcome was assigned to COC(=O)CC=C1c2ccc3c(c2[C@@H](OC)[C@@H]1C)OCO3 in this test?
Reply | inactive

Ask | Which outcome was assigned to C=CCOC(=O)N[C@@H](c1cccc(OC)c1)[C@@H](C)C=CCC(=O)O in this test?
Reply | inactive

Ask | Which outcome was assigned to COC(=O)C1=C(C)N(Cc2ccco2)C(=O)NC1c1ccc(Br)cc1 (centres undefined) in this test?
Reply | inactive

Ask | Which outcome was assigned to CCN(CCNC(=O)[C@H]1C=C(OC)C(=O)C[C@H](c2ccccc2)[C@@H]1C)C(C)=O in this test?
Reply | inactive

Ask | Which outcome was assigned to COC(=O)C1=C(C(=O)OC)[C@@H]2N(C)c3ccccc3[C@@]23C[C@@H](C(=O)OC)N(C(=O)c2ccc(Br)cc2)C3=N1 in this test?
Reply | inactive

Ask | Which outcome was assigned to CC(=O)OC[C@H]1O[C@H](CC=NO[C@H](C)c2cn([C@H](CO)Cc3ccccc3)nn2)C=C[C@@H]1OC(C)=O in this test?
Reply | inactive

Ask | Which outcome was assigned to COC(=O)[C@@]1(C=C2c3ccc(OC)cc3[C@@H](OC)[C@@H]2C)[C@@H]2C=CC[C@@H]21 in this test?
Reply | inactive

Ask | Which outcome was assigned to CCCCc1cc2c(cn1)=C(OC(=O)c1cccs1)C(C)(OC(=O)CC)C(=O)C=2 (centres undefined) in this test?
Reply | active

Ask | Which outcome was assigned to COC(=O)N[C@@H](c1ccc2ccccc2c1)C(C(C)=O)C(=O)OC (some centres undefined) in this test?
Reply | inactive

Ask | Which outcome was assigned to COC(=O)N[C@H](CC(C)=O)c1cccs1 in this test?
Reply | inactive

Ask | Which outcome was assigned to C[C@H]1CCCC(=O)N[C@@H](c2ccccc2)[C@@H](C)CCCC(=O)N[C@@H]1c1ccccc1 in this test?
Reply | inactive

Ask | Which outcome was assigned to C=CCN1c2ccccc2[C@]23CCC(=O)N(CCOC)C2=NC(C(=O)OC)=C(C(=O)OC)[C@H]13 in this test?
Reply | inactive

Ask | Which outcome was assigned to CC(C)(C)OC(=O)NCCCC1=CC2=CC(=O)C(C)(O)C(=O)C2=CO1 (centres undefined) in this test?
Reply | inactive

---

test: AP1 Signaling Pathway (AID 357); conditions: ME-180 (cervical carcinoma) AP-1-bla reporter, EGF-induced, beta-lactamase ratio, 5 h; at 38 µM (top of the series);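 further: ME-180 reporter cells stimulated with EGF at its EC50 level; on the % scale 0 is the no-effect control and ±100 the full control effect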
Inconclusive results are not listed.
Below, each entry is listed with its recorded activity change, negative = inhibition.
Quick note: give the figure in %, leave out the unit.

Worked examples, 8 molecules total:
[[record]]
compoundsmiles = "C[C@@H](CCc1ccc(O)cc1)NCCc1ccc(O)c(O)c1"
measurementkind = "activity change, negative = inhibition"
readoutvalue = -3.98

[[record]]
compoundsmiles = "C[C@H](N=C(NC#N)Nc1ccncc1)C(C)(C)C"
measurementkind = "activity change, negative = inhibition"
readoutvalue = -27.9

[[record]]
compoundsmiles = "CC(C)NC[C@@H](O)COc1ccc(CCOCC2CC2)cc1"
measurementkind = "activity change, negative = inhibition"
readoutvalue = 1.38

[[record]]
compoundsmiles = "CCn1ccnc1C[C@@H]1COc2ccccc2O1"
measurementkind = "activity change, negative = inhibition"
readoutvalue = -10

[[record]]
compoundsmiles = "C[C@@H]([C@H](O)c1ccc(O)cc1)N1CCC(Cc2ccccc2)CC1"
measurementkind = "activity change, negative = inhibition"
readoutvalue = -7.76

[[record]]
compoundsmiles = "Nc1c(S(=O)(=O)O)cc(Nc2ccc(Nc3nc(Cl)nc(Nc4ccc(S(=O)(=O)O)cc4)n3)c(S(=O)(=O)O)c2)c2c1C(=O)c1ccccc1C2=O"
measurementkind = "activity change, negative = inhibition"
readoutvalue = -21.1

[[record]]
compoundsmiles = "CN(C)C/C=C(\\c1ccc(Br)cc1)c1cccnc1"
measurementkind = "activity change, negative = inhibition"
readoutvalue = 14.9

[[record]]
compoundsmiles = "Cc1cccc(C)c1NC(=O)C[N+](C)(C)C"
measurementkind = "activity change, negative = inhibition"
readoutvalue = 0.892


Ask | Give the measured activity change, negative = inhibition of O=C(O)[C@H]1CN(CCCP(=O)(O)O)CCN1 .
Reply | 1.7

Ask | Give the measured activity change, negative = inhibition of CN1CCN(CCC=C2c3ccccc3Sc3ccc(S(=O)(=O)N(C)C)cc32)CC1 .
Reply | 18.8

Ask | Give the measured activity change, negative = inhibition of CC(=O)N[C@@H](C(=O)O)C(C)(C)SN=O .
Reply | -1.8

Ask | Give the measured activity change, negative = inhibition of C[C@@H]1CCN=C(N)S1 .
Reply | 12.9

Ask | Give the measured activity change, negative = inhibition of O=C(NC[C@H]1CCCCN1)c1cc(OCC(F)(F)F)ccc1OCC(F)(F)F .
Reply | 4.16

Ask | Give the measured activity change, negative = inhibition of O=C(O)c1cc(=O)c2ccc(Cl)cc2[nH]1 .
Reply | -5.86

Ask | Give the measured activity change, negative = inhibition of N[C@H](CCC(=O)N[C@H](CSN=O)C(=O)NCC(=O)O)C(=O)O .
Reply | -9.57

Ask | Give the measured activity change, negative = inhibition of COC(=O)C1=C(C)NC(C)=C([N+](=O)[O-])[C@H]1c1ccccc1C(F)(F)F .
Reply | -27.8

Ask | Give the measured activity change, negative = inhibition of O=C(NCCNC[C@@H](O)COc1ccc(O)cc1)N1CCOCC1 .
Reply | -6.28

Ask | Give the measured activity change, negative = inhibition of N[C@]1(C(=O)O)CCc2cc(C(=O)O)ccc21 .
Reply | 2.45

Ask | Give the measured activity change, negative = inhibition of N[C@@H](CO)C(=O)O .
Reply | 6.64

Ask | Give the measured activity change, negative = inhibition of CC[N+](CC)(CC)CC .
Reply | -0.239

Ask | Give the measured activity change, negative = inhibition of CCOC(=O)[C@@]12C[C@@H]1/C(=N/O)c1ccccc1O2 .
Reply | -6.63

Ask | Give the measured activity change, negative = inhibition of COc1ccc(CCN(C)CCC[C@@](C#N)(c2ccc(OC)c(OC)c2)C(C)C)cc1OC .
Reply | 10.5

Ask | Give the measured activity change, negative = inhibition of COc1ccc2c(c1)c(CC(=O)N1CCOCC1)c(C)n2C(=O)c1ccc(Cl)cc1 .
Reply | -8.4

Ask | Give the measured activity change, negative = inhibition of COc1cc2nc(N3CCN(C(=O)[C@H]4CCCO4)CC3)nc(N)c2cc1OC .
Reply | 14.3
